Origin of measurements: PubChem BioAssay (NCI)

- Test system: LOX IMVI melanoma
- assayDetails: NCI tumour cell line growth inhibition, 48 h
fulfilled means recorded TGI is 40 µM or above; not fulfilled means it is below 40 µM.

API: above_or_equal(metric=TGI, cutoff=40 µM) for item O/N=C1\CCCCC1C(NO)c1ccccc1 (stereo unspecified)
fulfilled

API: above_or_equal(metric=TGI, cutoff=40 µM) for item C=C(C)CNCCN
fulfilled

API: above_or_equal(metric=TGI, cutoff=40 µM) for item C=C(C)C(C1C=C(CCC(C=O)=C(C)C)C(=O)O1)C1(OC)C=C(C)C(=O)O1 (stereo unspecified)
fulfilled

API: above_or_equal(metric=TGI, cutoff=40 µM) for item FC(F)(F)c1ccc2nc(NCc3ccccc3)c(-c3ccccc3)nc2c1
fulfilled

API: above_or_equal(metric=TGI, cutoff=40 µM) for item COc1ccc(/C=N/NC(=O)c2ccc(O)c(CN(C)C)c2)cc1
fulfilled

API: above_or_equal(metric=TGI, cutoff=40 µM) for item Cc1cc(OP2(=O)NCc3ncccc3O2)ccc1Cl (stereo unspecified)
fulfilled

API: above_or_equal(metric=TGI, cutoff=40 µM) for item CNc1nncc2[nH]cnc12
fulfilled

API: above_or_equal(metric=TGI, cutoff=40 µM) for item COC(=O)C1=CN(CC2=CC(=O)C(C)=CC2=O)C=C(C(=O)OC)C1c1ccccc1OC
fulfilled
